Items are presented alongside their recorded MIC.
system: K. pneumoniae NVT1001 strains with ESBL or AmpC β-lactamase plasmids; test: Etest MIC of β-lactams, OmpK35/36 loss, ΔramR and/or extended-spectrum β-lactamase and AmpC β-lactamase (Table 8); format: cell-based, Klebsiella pneumoniae; conditions: Klebsiella pneumoniae, DHA-1-AmpR on pACYC177; Δ35/36 (ΔompK35/36 mutant)
assay endpoint: MIC

molecule	assay endpoint	recorded measurement
CC(C)(O/N=C(\C(=O)N[C@@H]1C(=O)N2C(C(=O)[O-])=C(C[n+]3ccccc3)CS[C@H]12)c1csc(N)n1)C(=O)O	MIC	> 256 mg/L
C[C@H]1[C@H](NC(=O)/C(=N\OC(C)(C)C(=O)O)c2csc(N)n2)C(=O)N1S(=O)(=O)O	MIC	16 mg/L
CO/N=C(\C(=O)N[C@@H]1C(=O)N2C(C(=O)O)=C(COC(N)=O)CS[C@H]12)c1ccco1	MIC	> 256 mg/L
C[C@@H](O)[C@H]1C(=O)N2C(C(=O)O)=C(SCCN=CN)C[C@H]12	MIC	32 mg/L
CC(=O)OCC1=C(C(=O)O)N2C(=O)[C@@H](NC(=O)Cc3cccs3)[C@H]2SC1	MIC	> 256 mg/L
CO[C@@]1(NC(=O)Cc2cccs2)C(=O)N2C(C(=O)O)=C(COC(N)=O)CS[C@@H]21	MIC	> 256 mg/L
C[C@@H](O)[C@H]1C(=O)N2C(C(=O)O)=C(S[C@@H]3CN[C@H](C(=O)N(C)C)C3)[C@H](C)[C@H]12	MIC	8 mg/L
CO/N=C(\C(=O)N[C@@H]1C(=O)N2C(C(=O)O)=C(COC(C)=O)CS[C@H]12)c1csc(N)n1	MIC	64 mg/L
CCO/N=C(\C(=O)N[C@@H]1C(=O)N2C(C(=O)[O-])=C(Sc3nc(-c4cc[n+](C)cc4)cs3)CS[C@H]12)c1nsc(N)n1	MIC	16 mg/L
C[C@@H](O)[C@H]1C(=O)N2C(C(=O)O)=C(S[C@@H]3CN[C@H](CNS(N)(=O)=O)C3)[C@H](C)[C@H]12	MIC	8 mg/L
C[C@@H](O)[C@H]1C(=O)N2C(C(=O)O)=C(S[C@@H]3CN[C@H](C(=O)Nc4cccc(C(=O)O)c4)C3)[C@H](C)[C@H]12	MIC	> 32 mg/L

* * *

system: K. pneumoniae NVT1001 strains with ESBL or AmpC β-lactamase plasmids; assay: Etest MIC of β-lactams, OmpK35/36 loss, ΔramR and/or extended-spectrum β-lactamase and AmpC β-lactamase (Table 8); type: cell-based, Klebsiella pneumoniae; conditions: Klebsiella pneumoniae, CTX-M-15 on pACYC177; Δ35 (ΔompK35 mutant)
Parameter: MIC. Scope: all listed entries.

compound	bound operator	MIC [µg/mL]
C[C@@H](O)[C@H]1C(=O)N2C(C(=O)O)=C(SCCN=CN)C[C@H]12 [Imipenem]	=	0.5
CO[C@@]1(NC(=O)Cc2cccs2)C(=O)N2C(C(=O)O)=C(COC(N)=O)CS[C@@H]21 [Cefoxitin]	=	8
CO/N=C(\C(=O)N[C@@H]1C(=O)N2C(C(=O)O)=C(COC(C)=O)CS[C@H]12)c1csc(N)n1 [Cefotaxime]	>	256
CC(=O)OCC1=C(C(=O)O)N2C(=O)[C@@H](NC(=O)Cc3cccs3)[C@H]2SC1 [Cephalothin]	>	256
C[C@H]1[C@H](NC(=O)/C(=N\OC(C)(C)C(=O)O)c2csc(N)n2)C(=O)N1S(=O)(=O)O [Aztreonam]	>	256

Entry source: patent US10760110B2
